# TEST: phenotypic screen on post-Golgi transport, primary screen (AID 739);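 further: yeast cells grown in 1536-well plates; yeast grown about 18 h at 30C before absorbance read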
# CONDITION: post-Golgi transport phenotypic cell assay; at 10 µM
Among all 98,000 compounds or so, about 880 (0.9%) were called active. No stated cut-off is given here; in the data, active means inhibition above about 30%; inactive means the rest. This is one part of a sample in which actives are shown more often than they occur.
Returns: one label drawn from T (active), F (inactive)

Worked set:
{"columns": ["MOLECULE", "CLASS NAME"],
 "data": [
  ["OC(c1ccccc1)c1nccn1Cc1ccccc1 (centres undefined)", "F"],
  ["CCCCCCC(=O)Nc1nc(C)c(-c2csc(Nc3cccc(OC)c3)n2)s1", "F"],
  ["O=C1c2ccccc2C2=Nc3ccccc3SC(c3ccccc3F)C12 (centres undefined)", "T"],
  ["CC(CCc1ccccc1)NC(=O)c1ccc(Br)o1 (centres undefined)", "F"],
  ["Cc1c(C=O)c2ccccn2c1C(=O)c1ccncc1", "F"],
  ["C=CCCC(=O)Nc1nc(C)c(-c2csc(Nc3ccc(Cl)cc3)n2)s1", "F"]
]}

Test call, this molecule: CC(C)Cn1cnc2c1c(=O)n(CC(O)c1ccccc1)c(=O)n2CC(C)C (centres undefined)
F

Test call, this molecule: O=C(CC(O)(C(F)(F)F)C(F)(F)F)Nc1ccc(Cl)c(Cl)c1
T

Test call, this molecule: Cc1ccc(NC(=O)COc2ccc(-n3ccnc3)cc2)cc1Cl
T

These entries and their values trace back to PubChem BioAssay AID739.
